Recorded inhibition at 10 µM by entry
- Test system: LAPC4
- assay-notes: Inhibition of 3-alpha-diol conversion to 5-alpha-dihydrotestosterone in human LAPC4 cells assessed in 200000 cells at 10 uM measured after 24 hrs using [14C]-3-alpha-diol/[14C]-3-beta-diol (9:1) as non-radiolabeled/radiolabeled 20:1 mixture by TLC analysis relative to control
- Format: functional
- condition-details: LAPC4, 24 h
Your answer is read as %, so omit the unit and give the number.

The following compounds have reported results that may help.
- C[C@]12CC[C@@H](O)C[C@@H]1CC[C@@H]1[C@@H]2CC[C@]2(C)C(=O)CC[C@@H]12: 83.8
- COc1cc(CN2CCN(C[C@@]3(O)CC[C@@]4(C)[C@@H](CC[C@@H]5[C@@H]4CC[C@]4(C)C(=O)CC[C@@H]54)C3)CC2)cc(C(F)(F)F)c1: 62.9

Consider C[C@]12CC[C@](O)(CN3CCN(Cc4ccc5ccccc5c4)CC3)C[C@@H]1CC[C@@H]1[C@@H]2CC[C@]2(C)C(=O)CC[C@@H]12 . Its measured inhibition at 10 µM is 51.4

The recorded inhibition at 10 µM for entry C[C@]12CC[C@](O)(CN3CCN(C(=S)Nc4ccc5ccccc5c4)CC3)C[C@@H]1CC[C@@H]1[C@@H]2CC[C@]2(C)C(=O)CC[C@@H]12 equals 42.1

Quick note, inhibition at 10 µM for C#C[C@]1(O)CC[C@H]2[C@@H]3CC[C@H]4C[C@@](O)(CN5CCN(Cc6ccc(C(F)(F)F)c(OC)c6)CC5)CC[C@]4(C)[C@H]3CC[C@@]21C landed at 88.8
